The origin of these recorded values is patent US20180037631A1.

Target: EGFR on the surface of human tumour cells (A431, H292) (human, UniProt P00533 25-1210)
Assay: cell-based or functional assay
PARAMETER_MEASURED: % inhibition of EGFR phosphorylation at 100 nM binder, cell-based assay (%)

BINDER: E68 (designed binder) 10Fn3 domain: MGVSDVPRDLEVVAATPTSLLISWKTEPGRHQYYRITYGETGGNSPVQEFTVPGGVRTATISGLKPGVDYTITVYAVTDWYNLVSHEYVYHTTPISINYRTEIDKPSQ
VAL: 78.5
--
BINDER: E61 (designed binder) 10Fn3 domain: MGVSDVPRDLEVVAATPTSLLISWDASQGNYQYYRITYGETGGNSPVQEFTVPGAVKTATISGLKPGVDYTITVYAVTDFFNPATHEYIYHTTPISINYRTEIDKPSQ
VAL: 79.8
--
BINDER: E71 (designed binder) 10Fn3 domain: MGVSDVPRDLEVVAATPTSLLISWWFGTSSYQYYRITYGETGGNSPVQEFTVPGDLKTATISGLKPGVDYTITVYAVTDYFNPVTHEYEYHTTPISINYRTEIDKPSQ
VAL: 80.4
--
BINDER: E65 (designed binder) 10Fn3 domain: MGVSDVPRDLEVVATTPTSLLISWRPTSQVYQYYRITYGETGGNSPVQEFTVPYNVYTATISGLKPGVDYTITVYAVTDFFNYATHEYIYHTIPISINYRTEIDKPSQ
VAL: 80.7
